assay: Pharmacokinetics in Sprague Dawley rats (Table 4); type: in vivo; conditions: Sprague Dawley, in vivo; rat, IV (2 mg/kg)

Compound: O=C(c1ccccc1)N1CCN(c2ccnc3cc(Cl)ccc23)CC1 [Compound D1]
half-life (h): 3.21
--
Compound: O=C(c1ccc(N2CCCC2)c([N+](=O)[O-])c1)N1CCN(c2ccnc3cc(Cl)ccc23)CC1
half-life (h): 0.98
--
Compound: O=C(c1ccccc1F)N1CCN(c2ccnc3cc(Cl)ccc23)CC1 [Compound D2]
half-life (h): 1.77

---

assay: Pharmacokinetics in Beagle dogs (Table 5); type: in vivo; details: male, Beagle, plasma; dog, PO (10 mg/kg)

Compound String: O=C(c1ccc(N2CCCC2)c([N+](=O)[O-])c1)N1CCN(c2ccnc3cc(Cl)ccc23)CC1
AUC(0-t): 110 µg·h/mL
